Measured RP-LC retention time by item
Assay: gradient 5% acetonitrile 3 min, to 50% in 2 min, to 85% in 15 min, held 3 min, 100 µL/min
Conditions: column: Zorbax Extend-C18 2.1 x 50 mm; eluents: water / acetonitrile, 0.1% formic acid
Give just the numeric value; s need not be written.

Solved cases below.
CC(C)N1C(=O)C(C)(C(=O)NCc2ccc3c(c2)OCO3)Oc2cccnc21 (stereo not given) | 894
CC1(C)COCN1S(=O)(=O)c1ccc(C(=O)Nc2nnc(-c3cccs3)o2)cc1 | 750
Cc1nc(N2CCN(c3ncccn3)CC2)nc2c1C(=O)CCC2 | 886
Cn1c(=O)c2c(nc(N3CCCCC3)n2C)n(C)c1=O | 794

Proceed to the following item.
Lookup: Entry CC1=NS(=O)(=O)N(C)C=C1C(=O)OCc1nc(-c2cccc(F)c2)no1 : reported RP-LC retention time = ?
Found: 967

====

Experiment: gradient 5% acetonitrile 3 min, to 50% in 2 min, to 85% in 15 min, held 3 min, 100 µL/min
Details: column: Zorbax Extend-C18 2.1 x 50 mm; eluents: water / acetonitrile, 0.1% formic acid
Measured RP-LC retention time by item
Please provide the amount together with its unit, number first.

Solved cases below.
COc1ccc2cccc(CCNC(C)=O)c2c1 | 696 s
COC(=O)c1c(C)[nH]c(C(=O)N2CCC(CC(=O)NCCC3=CCCCC3)CC2)c1C | 787 s
Cc1cc(C(=O)NCc2ccco2)c2cccc(-c3ccccc3)c2n1 | 936 s

Lookup: Entry CN1CCN(c2ncncc2N2CCC(C(=O)N3CCN(c4ccccc4)CC3)CC2)CC1 : reported RP-LC retention time = ?
Found: 570 s

Lookup: Same read-out for COc1ccc(NC(=O)N2CCC(n3c(C(F)(F)F)nc4cccnc43)CC2)cc1OC ?
Found: 768 s

Lookup: Same read-out for Cc1[nH]c(C(=O)NCc2ccccc2Cl)c(C)c1S(=O)(=O)N1CCCC1 ?
Found: 866 s

Lookup: Same read-out for COc1ccc(C(=O)Nc2nc(-c3ccc4c(c3)N(C)C(=O)C(C)O4)cs2)cc1 (centres undefined) ?
Found: 984 s

Lookup: Same read-out for c1ccc(CNc2nc(-c3ccncc3)nc3c2CCC3)nc1 ?
Found: 555 s

Lookup: Same read-out for CCC(C)NC(=O)NCCC1CCN(S(=O)(=O)c2ccccc2)CC1 (centres undefined) ?
Found: 742 s

Lookup: Same read-out for COCc1cc(=O)n(CC(=O)Nc2c(C)cccc2C)c(N)n1 ?
Found: 604 s

Lookup: Same read-out for CCn1ncc(NC(=O)c2ccc(Br)cc2)c(N2CCOCC2)c1=O ?
Found: 884 s

Lookup: Same read-out for Cc1cccc(NC(=O)C2CCN(c3nnc4cccc(C)n34)CC2)c1 ?
Found: 706 s

Lookup: Same read-out for O=C(CN1CC(c2nc(Cc3ccccc3)no2)C1)NCc1ccc(F)cc1 ?
Found: 595 s

Lookup: Same read-out for Cc1nnc2c(NC(=O)c3ccc(Cl)s3)cccn12 ?
Found: 729 s

====

Experiment: gradient 5% acetonitrile 3 min, to 50% in 2 min, to 85% in 15 min, held 3 min, 100 µL/min
Details: column: Zorbax Extend-C18 2.1 x 50 mm; eluents: water / acetonitrile, 0.1% formic acid
Classify as follows. Reported RP-LC retention time greater than or equal to 800 s: Condition met. Reported RP-LC retention time below: Condition not met.

Solved entries (count: 5):
CC(C)NC(=O)c1nsc(C(=O)NC2CC2)c1N | Condition not met
COc1ccccc1N1CCN(c2cc(SCC(=O)Nc3cc(C)cc(C)c3)ncn2)CC1 | Condition met
CC(C)NC(=O)NCCN1CCN(c2ccccc2)CC1 | Condition not met
O=C(CCCc1ccccc1)Nc1cnn(-c2ncc(N3CCCC3)cn2)c1 | Condition met
CN(C)S(=O)(=O)N(CC(=O)Nc1ccccc1C(F)(F)F)c1ccccc1 | Condition met

Lookup: Say whether CC(C)n1cc(S(=O)(=O)NCc2cccc(Cl)c2)c2cccnc21 shows RP-LC retention time of 800 s or more.
Found: Condition met

Lookup: Same read-out for CCCCn1cc(S(=O)(=O)N2CCN(c3ccc(F)cc3)CC2)c2cccnc21 ?
Found: Condition met

Lookup: Same read-out for CC(C)N1C(=O)c2cccnc2Sc2cc(NC(=O)c3ccc4c(c3)OCO4)ccc21 ?
Found: Condition met

Lookup: Same read-out for CC(C)C(=O)Nc1ccc(CCc2nc3ccc(C(=O)NCCC4=CCCCC4)cc3[nH]2)cc1 ?
Found: Condition not met

Lookup: Same read-out for CCCOc1nc2ccccc2nc1N1CCCC(C(=O)Nc2ccc(NC(C)=O)cc2)C1 (configuration not stated) ?
Found: Condition met

Lookup: Same read-out for CCCc1ccc(S(=O)(=O)N2C[C@@H](F)C[C@H]2C(=O)N2CCCCC2)cc1 ?
Found: Condition met

====

Assay: gradient 5% acetonitrile 3 min, to 50% in 2 min, to 85% in 15 min, held 3 min, 100 µL/min
Details: column: Zorbax Extend-C18 2.1 x 50 mm; eluents: water / acetonitrile, 0.1% formic acid
Measured RP-LC retention time by item
Give just the numeric value; s need not be written.

Solved cases below.
CCc1ccc(Nc2nc(C(=O)NCc3ccco3)nc3ccccc23)cc1 | 808
CCOc1ccc2c(n1)CCN(C(=O)NCC(C)C)C2 | 740
Nc1cc(C2CCN(C(=O)c3ccc4c(c3)OCO4)CC2)no1 | 651

Lookup: Entry CCOc1ccccc1C(=O)N1CCN(c2nnc(SCC(=O)NC(C)C)s2)CC1 : reported RP-LC retention time = ?
Found: 673

Lookup: Same read-out for O=C(CCc1ccccc1)Nc1cnc(-c2cccnc2)nc1 ?
Found: 690

Lookup: Same read-out for CS(=O)(=O)Nc1cccc(NC(=O)Cc2csc(NC(=O)c3ccsc3)n2)c1 ?
Found: 676

Lookup: Same read-out for COc1ccc(-n2nc3c(N4CCCC(C(=O)NCCc5ccco5)C4)nnc(C)c3c2C)cc1 (configuration not stated) ?
Found: 712

====

Test: gradient 5% acetonitrile 3 min, to 50% in 2 min, to 85% in 15 min, held 3 min, 100 µL/min
Conditions: column: Zorbax Extend-C18 2.1 x 50 mm; eluents: water / acetonitrile, 0.1% formic acid
RP-LC retention time vs 700 s: less than gives rule met; not less than gives rule not met.

Lookup: Strictly below 700 s: is that where RP-LC retention time of O=C(NC1CC1)c1ccc(OCC2CCN(C(=O)Cc3ccccc3F)CC2)cc1 sits?
Found: rule not met

Lookup: Same read-out for CCc1cccc(NC(=O)C2CCCN(S(=O)(=O)c3c[nH]c(C(=O)N4CCCC4)c3)C2)c1 (centres undefined) ?
Found: rule not met

Lookup: Same read-out for Cc1nc2nc(-c3ccccc3)nn2c(C)c1CC(=O)N(C)Cc1ccccc1 ?
Found: rule not met

Lookup: Same read-out for Cc1nn(CC(=O)NC(C)C)c(=O)c2nc(-c3ccccc3)sc12 ?
Found: rule not met

Lookup: Same read-out for Cc1cc2c(=O)n(CC(=O)NCc3ccccc3Cl)c3cccnc3n2n1 ?
Found: rule not met

Lookup: Same read-out for O=C(Cn1ccc2ccn(Cc3ccccc3F)c2c1=O)NCc1ccc(F)cc1F ?
Found: rule not met

Lookup: Same read-out for Cc1cccc(NC(=O)C2CCN(S(=O)(=O)c3cn(C(C)C)cn3)CC2)n1 ?
Found: rule met

Lookup: Same read-out for Cc1ccccc1N1C(=O)CC(N2CCC(C(N)=O)CC2)C1=O (centres undefined) ?
Found: rule met

Lookup: Same read-out for COc1ccc(-c2cc3c(=O)n(Cc4noc(CN5CCCC(C)C5)n4)ccn3n2)cc1 (centres undefined) ?
Found: rule met

Lookup: Same read-out for CCN(CC)c1ccc(NC(=O)c2cccs2)cc1C(=O)O ?
Found: rule met

Lookup: Same read-out for COc1ccc(NC(=O)N2CCC(c3nc(C(=O)N(C)C)c(C)o3)CC2)c(OC)c1 ?
Found: rule met

====

Test: gradient 5% acetonitrile 3 min, to 50% in 2 min, to 85% in 15 min, held 3 min, 100 µL/min
Conditions: column: Zorbax Extend-C18 2.1 x 50 mm; eluents: water / acetonitrile, 0.1% formic acid
Measured RP-LC retention time by item
Give just the numeric value; s need not be written.

CNC(=O)c1sc2nc(-c3ccccc3)c(NCCCOC)n2c1C | 684
COc1ccc(-c2nc(-n3c(C)c4c(C)nnc(C)c4c3C)sc2C)cc1 | 726
Cc1cccc(C)c1-n1ccn(Cc2nc(-c3cccc(F)c3)no2)c(=O)c1=O | 901
CCOCc1nc(C2CCCN2S(=O)(=O)c2ccc3c(c2)CCC3)no1 (stereo not given) | 1020
Cc1ccc(NS(=O)(=O)c2cc(-c3[nH]ncc3C(=O)N3CCOCC3)oc2C)cc1C | 713

Lookup: Entry COc1ccc(CNCCc2c(C)[nH]c3ccc(F)cc23)cc1OC : reported RP-LC retention time = ?
Found: 571

Lookup: Same read-out for C=CCNC(=O)NC1CCN(C2=NS(=O)(=O)C(c3cccc(Cl)c3)=C2C)CC1 ?
Found: 861

Lookup: Same read-out for COc1ccc(Cn2c(=O)c3sccc3n(Cc3nc(-c4cccc(C)c4)no3)c2=O)cc1 ?
Found: 1160

Lookup: Same read-out for CC(C)NC(=O)c1ccc(OCC2CCN(C(=O)c3ccc(N(C)C)cc3)CC2)cc1 ?
Found: 816

Lookup: Same read-out for CN1CC(=O)N(CC(=O)Nc2cccc(C#N)c2)c2ccccc2C1=O ?
Found: 653

Lookup: Same read-out for O=C(Cc1csc(COc2ccccc2)n1)N1CCN(c2ccccn2)CC1 ?
Found: 617
